This section presents binders with their documented pEC50 values.
- STUDY_SYSTEM: T1, hTRβ ligand binding domain (hTRβ LBD), in vitro translated, as used in the GST-GRIP1 binding and peptide … (human, UniProt P10828 202-461, limits assumed, [35S]-methionine labelled (in vitro translated))
- T1 construct: domain: LBD; also called TR LBD; TR-LBD
- T1 sequence (looked up): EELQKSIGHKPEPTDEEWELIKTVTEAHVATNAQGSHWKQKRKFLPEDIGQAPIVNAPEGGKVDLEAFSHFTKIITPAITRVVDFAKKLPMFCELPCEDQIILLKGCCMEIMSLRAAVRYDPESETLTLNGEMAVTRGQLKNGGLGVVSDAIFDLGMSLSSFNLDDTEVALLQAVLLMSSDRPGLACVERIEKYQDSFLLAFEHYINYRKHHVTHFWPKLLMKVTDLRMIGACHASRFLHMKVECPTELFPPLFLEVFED
- TEST_SUMMARY: peptide competition of hTRβ LBD binding to GST-GRIP1 (563-767) beads
By convention, pEC50 is the negative base-10 log of a molar concentration.

INSERT INTO measurements (binder, attribute_measured, measured) VALUES
  ('EKHKILHRLLQDS (also called original NR-box 2 peptide) [GRIP1 NR-box 2 peptide EKHKILHRLLQDS]', 'pEC50', 5.82);

Proceed to the following item.
Exercise: Record request: pEC50 value, item ENALLRYLLDKDD [GRIP1 NR-box 3 peptide ENALLRYLLDKDD]
Key: 5.40
